Test system: UWB1 cells
Assay Summary: cells
Measurement Context: read-out: IC50 (μM) UWB1 cells, UWB1 cell viability
For each of the compounds below, state its IC50.
Just the number please, in µM, no unit attached.

Req: Tell me the measured IC50 of C=C1[C@H](O[C@H]2C=C(C)[C@H](c3ccoc3)C2)[C@@H]2OC(=O)[C@]3(C)C=CC(=O)[C@@](C)([C@@H]23)[C@H]1CC(=O)OC , please.
Resp: 0.265

Req: Follow-up item: COC(=O)C[C@H]1[C@]2(C)C3=C(C)[C@H](c4ccoc4-c4ccc(C(=O)O)cc4)C[C@H]3O[C@@H]2[C@@H]2OC(=O)[C@]3(C)C=CC(=O)[C@@]1(C)[C@@H]23
Resp: 1.79

Req: Repeat with COC(=O)C[C@H]1[C@@H]2CC3=C(C)[C@@H](c4ccc(CO)cc4)C[C@@H]3O[C@@H]2[C@@H]2OC(=O)[C@]3(C)C=CC(=O)[C@@]1(C)[C@@H]23
Resp: 0.351

Req: Further, for COC(=O)C[C@H]1[C@@H]2CC3=C(C)[C@H](c4ccc(OC)cc4)C[C@@H]3O[C@@H]2[C@@H]2OC(=O)[C@]3(C)C=CC(=O)[C@@]1(C)[C@@H]23 ?
Resp: 0.11

Req: Note, next up: COC(=O)C[C@H]1[C@]2(C)C3=C(C)[C@H](c4ccc(O)cc4)C[C@H]3O[C@@H]2[C@@H]2OC(=O)[C@]3(C)C=CC(=O)[C@@]1(C)[C@@H]23
Resp: 0.464

The measured values listed here are drawn from patent US20240336622A1.
